- System: SK-OV-3 ovarian
- assay-remarks: NCI tumour cell line growth inhibition, 48 h
measurement-type: TGI

[in] For O=c1[nH]c(=O)n2n1C1C=CC2CC1 , write its TGI.
[out] > 100 µM

[in] For O=C1CCC2(c3ccccc3)Nc3ccc(Cl)cc3N12 (stereo not given) , write its TGI.
[out] > 100 µM

[in] For CC(=O)OC1OC(c2ccoc2)C[C@@]12C1CCC3O[C@]3(C)[C@]1(C)C[C@H](OC(C)=O)[C@H]2C (stereo not given in full) , write its TGI.
[out] > 75 µM

[in] For COC(=O)/C(=C\c1c(-c2ccccc2)[nH]c2ccccc12)S(C)(=O)=O , write its TGI.
[out] 75.5 µM

[in] For Cc1cc(O)cc(C)c1/C=C/c1cncc(C(=O)OC(C)(C)C)c1 , write its TGI.
[out] > 25 µM

* * *

- Tested on: SW-620 colon
- assay-remarks: NCI tumour cell line growth inhibition, 48 h
Give measured TGI for each item. Keep answers brief.

[in] For O=C1Nc2ccccc2/C1=C\c1c(Cl)nc2n1CCS2 , write its TGI.
[out] > 100 µM

[in] For FC(F)(F)c1[nH]ncc1-c1nc2ccc3[nH]ncc3c2c2c1CCCC2 , write its TGI.
[out] 11 µM

[in] For N#C/C(=C\c1cccc2cnccc12)N1N=NC2C=CC=CC21 (stereo unspecified) , write its TGI.
[out] > 100 µM

[in] For CC(=O)OCCOCCN1CCN(c2c(O)c3c(c(O)c2Cl)C(=O)C=CC3=O)CC1 , write its TGI.
[out] 0.475 µM

[in] For Cc1[nH]c(=O)nc(N(CCO)/N=C/c2ccc(Cl)cc2)c1C(=O)Nc1ccc(Cl)cc1 , write its TGI.
[out] > 100 µM

[in] For CC(=O)OC(=C(C#N)C#N)c1nccnc1C(C)=O , write its TGI.
[out] > 20 µM

* * *

- System: KM12 colon
- assay-remarks: NCI tumour cell line growth inhibition, 48 h
measurement-type: TGI

[in] For CC(C)[C@](O)(C(=O)OCC1=CCN2CC[C@@H](O)[C@@H]12)[C@H](C)O , write its TGI.
[out] > 375 µM

[in] For COc1cccc(C=C2N=C(C)N(n3c(-c4ccccc4)nc4ccccc4c3=O)C2=O)c1 , write its TGI.
[out] > 100 µM

[in] For O=S(=O)(/N=C(\NO)Nc1ccc(Cl)cc1)C1CC=C(c2ccon2)S1 (stereo not drawn) , write its TGI.
[out] > 100 µM

[in] For Cc1nc2ccccc2c(=O)n1/N=C/c1ccc(N(C)C)cc1 , write its TGI.
[out] > 100 µM

[in] For COc1ccc(-c2nc3c(nc2-c2ccc(OC)cc2)N(C)S(=O)(=O)N=C3N)cc1 , write its TGI.
[out] 92.2 µM

[in] For COc1ccc(-c2nnc(Nc3nc(O)c(C4=c5cc(F)ccc5=NC4=O)s3)o2)cc1 , write its TGI.
[out] > 100 µM

[in] For CCOC(=O)N1N(c2ccccc2)C(=O)C1(c1ccccc1)c1ccccc1 , write its TGI.
[out] > 100 µM

[in] For CC(=O)C1=C(C)N(c2ccccc2)C2(O)C=CC(=O)C3=C(O)c4ccccc4C(=O)C312 (stereo not drawn) , write its TGI.
[out] 40.3 µM
